molecular target: plasma purified human AT-III (antithrombin III); assay: AT-III/UFH inhibition K0.5, ratio to Catalyst Biosciences WT FIXa
metric.name: K0.5-mut/K0.5-wt

Prompt line: What measured K0.5-mut/K0.5-wt goes with FIXa-D85N/K228N/R318Y/R338E/R403E/E410N (protein) chain 1: YNSGKLEEFVQGNLERECMEEKCSFEEAREVFENTERTTEFWKQYVDGDQCESNPCLNGGSCKDDINSYECWCPFGFEGKNCELNVTCNIKNGRCEQFCKNSADNKVVCSCTEGYRLAENQKSCEPAVPFPCGRVSVSQTSKLTR chain 2: VVGGEDAKPGQFPWQVVLNGKVDAFCGGSIVNEKWIVTAAHCVETGVNITVVAGEHNIEETEHTEQKRNVIRIIPHHNYNAAINKYNHDIALLELDEPLVLNSYVTPICIADKEYTNIFLKFGSGYVSGWGRVFHKGYSALVLQYLRVPLVDRATCLESTKFTIYNNMFCAGFHEGGRDSCQGDSGGPHVTEVEGTSFLTGIISWGEECAMKGKYGIYTKVSEYVNWIKNKTKLT ?
Response line: > 517
